meta.source: the MegaScale stability set (Tsuboyama et al. 2023)

B1: 2K2A (parent)
chain: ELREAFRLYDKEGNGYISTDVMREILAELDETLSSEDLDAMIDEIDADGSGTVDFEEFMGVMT

- Variants of: B1
- assay-comment: folding stability dG (cDNA display proteolysis); higher = more stable
- setup-conditions: PBS, room temperature
Decide by folding stability dG: equal to or exceeding 1 kcal/mol means yes (1), less means no (0).

Past entries and their recorded results:
L33K	no (0)
D54I	yes (1)
D48L	yes (1)

Could you verify whether the entry "F55S" shows folding stability dG of no less than 1 kcal/mol? no (0)

Check "D46M" too. no (0)

# repeat for "V21G" no (0)

Then this variant: "A40T" yes (1)
